System: MS2 coat protein
Experiment: apparent KD of MS2 coat protein; designed switch direction (-1 OFF switch, 1 ON switch): 1; higher = weaker reporter binding
Conditions: input ligand: microRNA oligo, concentration not stated
Parameter threshold = 0.04 µM. Response is fulfilled when apparent KD of MS2 coat protein meets or exceeds it, else not fulfilled.

UUAUUAUUUACAUGAGGAUCACCCAUGUUUUUAUGUCAGAGACAGGAUAUAGAAGUCUCGUUUUACUAGAAGGGUCUUUUUAUU [JR_SSNG3_Sub016] (Eterna round: R96, puzzle: Same State NG 3) : not fulfilled
GUGCUCGUGUGAGGAUAUGCUUCCGUUUCGGCUGCAGAAGGUACUAUUAUACAUGAGGAUCACCCAUGUCUCUUUUGUUCGGUG [salish99_SSNG1_r04_911] (Eterna round: R96, puzzle: Same State NG 1) : not fulfilled
CGACGCACGGCAGGAUAUCGAUUCCAAAGGAAUCGAGAAGGGCCUCAUGUCGUGGAAACGUGACAUGAGGAUCACCCAUGUUGC [Omei SS(NG)1 Cv19] (Eterna round: R96, puzzle: Same State NG 1) : not fulfilled
GUACAUAUUAUAGGAUAUCACGUCGUUUAGACGUGAGAAGGAUAAUCCCACAUGAAUAUUAAUACAUGAGGAUCACCCAUGUAC [SSNG1/18-A3] (Eterna round: R96, puzzle: Same State NG 1) : fulfilled
GGCAAUAUCACAGGAUAUUGGAAAGGAAGUGUACAAGAAGGGUGAUAGUGCCUCAGCAACAUGAGGAUCACCCAUGUACUGAGC [PowerStrip SSNG 1.29] (Eterna round: R96, puzzle: Same State NG 1) : fulfilled

Request: Does UUGCGGGCUUGAGGAUAUUGAGUACAUAUGUUUAACAUGAGGAUCACCCAUGUGGGUUGCGGUAUCGAGAAGGUGGCUUCCUGC [salish99_SSNG2_r04_813] (Eterna round: R96, puzzle: Same State NG 2) have a reported apparent KD of MS2 coat protein of at least 0.04 µM?
Response: fulfilled

Request: Does GGUACUAUCACAGGAUAUGCUAUCCUUUGGGUAGCAGAAGGGUGGUACAUGAGGAUCACCCAUGUGGUGCCAGGGCGUGAGCCC [JL SSNG1 1.97] (Eterna round: R96, puzzle: Same State NG 1) have a reported apparent KD of MS2 coat protein of at least 0.04 µM?
Response: fulfilled

Request: Does ACAUGAGAGCGAGGAUAUAUUGUACCUACAUGUGACAUGAGGAUCACCCAUGUGGUAAGUAUGACAUAGAAGGCGCAGAUAUGU [Equivalance 91 - Jieux - Same State NG 2] (Eterna round: R96, puzzle: Same State NG 2) have a reported apparent KD of MS2 coat protein of at least 0.04 µM?
Response: not fulfilled

Request: Does GUUAGGAAUCUAGCAAACAUGAGGAUCACCCAUGUAAGUGGGAAGGAUAUGGUACAGAAACUGUACCAGAAGGUCUUAUUAAUU [Omei SS(NG) 3 AV1] (Eterna round: R96, puzzle: Same State NG 3) have a reported apparent KD of MS2 coat protein of at least 0.04 µM?
Response: fulfilled

Request: Does UUAAUUUACUGAGGAUAUCGUGUCGUCUGAUUUGACAUGAGGAUCACCCAUGUGUGAAGUGGUAUCGAGAAGGCAGUUUUCUUA [JR_SSNG2_Sub027] (Eterna round: R96, puzzle: Same State NG 2) have a reported apparent KD of MS2 coat protein of at least 0.04 µM?
Response: fulfilled

Request: Does GGAGCCGGCCUAGGAUAUUUCAUAAUUUAACAUGAGGAUCACCCAUGUAGGCCAGAAGGCCUUGGGAAGAAGGAGGUCGGCUCC [Loop Effect - U26,U27,U28] (Eterna round: R96, puzzle: Same State NG 2) have a reported apparent KD of MS2 coat protein of at least 0.04 µM?
Response: fulfilled

Request: Does UAAGGACAUGAGGAUCACCCAUGUGCUUCAUAUGGAGAAUCUCAGGAUAUCCUGAGGAUCACCCAGGAGAAGGGAGAUCCGAGG (Eterna round: R96, puzzle: Same State NG 3) have a reported apparent KD of MS2 coat protein of at least 0.04 µM?
Response: fulfilled

Request: Does GAGAGAUGGCUAGGAUAUUCGGUGAUAAUGAUAGAAGAAGGAGCUGACAUGAGGAUCACCCAUGUGGGAAUAAUCCAGAGAGAG [Parity 19 - Jieux - Same State NG 1] (Eterna round: R96, puzzle: Same State NG 1) have a reported apparent KD of MS2 coat protein of at least 0.04 µM?
Response: fulfilled

Request: Does GCUCGUAUCACGACCGACAUGAGGAUCACCCAUGUAUGUUGGUAGGAUAUCUAUAUUAAGGAUAUAGAGAAGGGCCGAACGAGC [SameState NG3 #14] (Eterna round: R96, puzzle: Same State NG 3) have a reported apparent KD of MS2 coat protein of at least 0.04 µM?
Response: not fulfilled

Request: Does UCGGGCGUACUUGCUGACAUGAGGAUCACCCAUGUAAAUGGGAAGGAUAUGGUUCCGUUUCGGUUCCAGAAGGUCCUGGGUGCU [salish99_SSNG3_r04_311] (Eterna round: R96, puzzle: Same State NG 3) have a reported apparent KD of MS2 coat protein of at least 0.04 µM?
Response: fulfilled

Request: Does CAGAGCCCAUGGGCCUGACAUGAGGAUCACCCAUGUGGCUUUGAGGAUAUAAGCGGAAACACCGCUUAGAAGGCGAAGCCUAAC [Atxerati] (Eterna round: R96, puzzle: Same State NG 3) have a reported apparent KD of MS2 coat protein of at least 0.04 µM?
Response: not fulfilled

Request: Does GGUAUUAACACAGGAUAUGCUUACGAAACGUAAGCAGAAGGGUGGACAUGAGGAUCACCCAUGUUUGUACCAGGGCGUGAGCCC [JL SSNG1 1.71] (Eterna round: R96, puzzle: Same State NG 1) have a reported apparent KD of MS2 coat protein of at least 0.04 µM?
Response: fulfilled

Request: Does UUAAUCUGAACAUGAGGAUCACCCAUGUAUCUUACCUUAGGACAGGAUAUAGAUGUUAAGAAUUACUAGAAGGGUCAGUAUAUU [JR_SSNG3_Sub012] (Eterna round: R96, puzzle: Same State NG 3) have a reported apparent KD of MS2 coat protein of at least 0.04 µM?
Response: not fulfilled
